Target: recombinant human TNF-α (rhTNF-α) (Homo sapiens, UniProt P01375)
Construct: purchased Miltenyi Biotec
Sequence (P01375 77-233 limits assumed): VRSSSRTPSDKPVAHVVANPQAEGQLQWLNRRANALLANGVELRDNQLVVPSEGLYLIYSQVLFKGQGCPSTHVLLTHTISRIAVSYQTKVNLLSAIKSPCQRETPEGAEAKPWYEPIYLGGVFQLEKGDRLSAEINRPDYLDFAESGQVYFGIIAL
Test: TNF-α-mediated hIL-8 secretion in HDFs (ELISA)
Type: cell-based
Conditions: HDFs, rhTNF-α 1 ng/ml pre-incubated 1 hour, 24 hours
Description: HDFs were seeded at a density of 10^4/well in a 96-well plate (BD Biosciences) and grown overnight. The cells were treated for 24 hours with a 1-hour-pre-incubated mixture of rhTNF-α and test compounds. IL-8 secretion was assessed by a human IL-8 uncoated ELISA kit (eBioscience, Inc., San Diego, CA, USA), and IL-6 secretion level was assessed by a human IL-6 ELISA MAX™ Deluxe kit (BioLegend, San Diego, CA, USA). […]

{"STRUCTURE": "C#Cc1cccc(Nc2nc(-c3cc(C)n(NC(=O)c4nn(C)c(=O)c5ccccc45)c3C)cs2)c1", "ENDPOINT_UNIT": "µM", "IC50": 16.7}

====

Target: recombinant mouse TNF-α (rmTNF-α) (Mus musculus, UniProt P06804)
Sequence (P06804 80-235 limits assumed): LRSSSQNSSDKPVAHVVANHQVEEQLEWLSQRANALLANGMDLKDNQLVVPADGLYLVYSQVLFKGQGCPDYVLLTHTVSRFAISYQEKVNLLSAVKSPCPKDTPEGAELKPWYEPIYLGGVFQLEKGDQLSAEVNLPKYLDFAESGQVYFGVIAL
Experiment: Cell death attenuation assay, act-D-sensitized L929 cells with rmTNF-α

{"MOLECULE": "C#Cc1cccc(Nc2nc(-c3cc(C)n(NC(=O)c4nn(C)c(=O)c5ccccc45)c3C)cs2)c1 [TIM1]", "TGT": "recombinant mouse TNF-α (rmTNF-α) (Mus musculus, UniProt P06804)", "IC50 (µM)": 24.9}
